Below: a set of entries, each annotated with reported pIC50.
# Tested on: MCF7 (human breast carcinoma) cell line
# Test Description: In vitro cytotoxic activity (MTT assay) against MCF7 cells
# Format: cell-based
# Recorded Conditions: MTT assay, cultures incubated 24 h with compound, ± standard deviation, three independent experiments
Convention used: pIC50 is expressed as -log10 of the molar concentration.

>>> result_number("CCCN1CCNC1=[S+][Pt-2]([NH3+])([NH3+])[S+]=C1NCCN1CCC.O=[N+]([O-])[O-].O=[N+]([O-])[O-] [Compound 5, cis-[Pt(NH3)2(PrImt)2].2NO3]")
4.13

Q: Find pIC50 for CN1CCNC1=[S+][Pt-2]([NH3+])([NH3+])[S+]=C1NCCN1C.O=[N+]([O-])[O-].O=[N+]([O-])[O-] [Compound 2, cis-[Pt(NH3)2(MeImt)2].2NO3] on MCF7 (human breast carcinoma) cell line and write it down.
Ans: 4.09

Q: Find pIC50 for CCN1CCCNC1=[S+][Pt-2]([NH3+])([NH3+])[S+]=C1NCCCN1CC.O=[N+]([O-])[O-].O=[N+]([O-])[O-] [Compound 9, cis-[Pt(NH3)2(EtDiaz)2].2NO3] on MCF7 (human breast carcinoma) cell line and write it down.
Ans: 3.99

Q: Find pIC50 for O=[N+]([O-])[O-].O=[N+]([O-])[O-].[NH3+][Pt-2]([NH3+])([S+]=C1NCCCN1)[S+]=C1NCCCN1 [Compound 8, cis-[Pt(NH3)2(Diaz)2].2NO3] on MCF7 (human breast carcinoma) cell line and write it down.
Ans: 4.05

Q: Find pIC50 for CC(C)N1CCNC1=[S+][Pt-2]([NH3+])([NH3+])[S+]=C1NCCN1C(C)C.O=[N+]([O-])[O-].O=[N+]([O-])[O-] [Compound 6, cis-[Pt(NH3)2(iPrImt)2].2NO3] on MCF7 (human breast carcinoma) cell line and write it down.
Ans: 4.09

Q: Find pIC50 for N.N.[Cl][Pt][Cl] [Cisplatin, cis-diaminedichloridoplatinum(II), reference compound] on MCF7 (human breast carcinoma) cell line and write it down.
Ans: 4.64

Q: Find pIC50 for CCN1CCN(CC)C1=[S+][Pt-2]([NH3+])([NH3+])[S+]=C1N(CC)CCN1CC.O=[N+]([O-])[O-].O=[N+]([O-])[O-] [Compound 4, cis-[Pt(NH3)2(Et2Imt)2].2NO3] on MCF7 (human breast carcinoma) cell line and write it down.
Ans: 4.01
